Origin of the recorded values: patent US20260242735A1

# Mean % WT Binding listing for each entry below
target_entity: human CD33 variant R122T (human, UniProt P20138 18-364)
Sequence (P20138 18-364 R122T limits assumed): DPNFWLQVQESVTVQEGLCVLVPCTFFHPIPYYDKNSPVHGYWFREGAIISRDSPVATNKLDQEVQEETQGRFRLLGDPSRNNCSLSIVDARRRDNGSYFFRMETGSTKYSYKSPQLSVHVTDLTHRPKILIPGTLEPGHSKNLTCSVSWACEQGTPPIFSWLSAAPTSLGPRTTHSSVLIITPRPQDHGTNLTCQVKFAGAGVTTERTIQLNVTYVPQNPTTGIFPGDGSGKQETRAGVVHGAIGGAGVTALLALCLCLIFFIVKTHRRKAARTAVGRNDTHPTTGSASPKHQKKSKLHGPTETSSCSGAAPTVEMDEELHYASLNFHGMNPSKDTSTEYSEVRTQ
test: flow cytometry, IgG on cells expressing the mutant

Answer with the recorded Mean % WT Binding of Refmab #2 (antibody, human IgG1, V domains shown, Tested in IgG format; human IgG1 Fc silent (PG-LALA)) VH: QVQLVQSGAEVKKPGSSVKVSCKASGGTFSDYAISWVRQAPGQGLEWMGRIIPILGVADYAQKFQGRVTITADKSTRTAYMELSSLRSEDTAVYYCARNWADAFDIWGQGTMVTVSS VL: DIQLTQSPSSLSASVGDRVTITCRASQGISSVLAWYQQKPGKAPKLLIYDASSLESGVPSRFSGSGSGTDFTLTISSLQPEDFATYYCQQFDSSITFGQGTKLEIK only.
1.5 % of WT

Answer with the recorded Mean % WT Binding of Refmab #3 (antibody, human IgG1, V domains shown, Tested in IgG format; human IgG1 Fc silent (PG-LALA)) VH: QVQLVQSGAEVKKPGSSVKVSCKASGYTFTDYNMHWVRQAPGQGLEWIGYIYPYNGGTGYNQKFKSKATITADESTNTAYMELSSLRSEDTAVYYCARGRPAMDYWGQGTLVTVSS VL: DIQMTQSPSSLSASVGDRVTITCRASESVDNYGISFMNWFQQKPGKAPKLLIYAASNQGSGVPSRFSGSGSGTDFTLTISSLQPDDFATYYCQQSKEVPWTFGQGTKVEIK only.
103 % of WT

Answer with the recorded Mean % WT Binding of Refmab #4 (antibody, human IgG1, V domains shown, Tested in IgG format; human IgG1 Fc silent (PG-LALA)) VH: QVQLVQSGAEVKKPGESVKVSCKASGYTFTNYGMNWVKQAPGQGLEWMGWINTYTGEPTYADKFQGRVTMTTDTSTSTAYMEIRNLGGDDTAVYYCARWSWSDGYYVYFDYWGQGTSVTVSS VL: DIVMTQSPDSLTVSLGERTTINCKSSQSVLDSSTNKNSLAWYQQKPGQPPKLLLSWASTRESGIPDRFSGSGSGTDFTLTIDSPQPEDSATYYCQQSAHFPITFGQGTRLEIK only.
93.2 % of WT

Answer with the recorded Mean % WT Binding of Refmab #1 (antibody, human IgG1, V domains shown, Tested in IgG format; human IgG1 (Absolute Antibody hP67.6, Cat. No. Ab00283-10.0); also called hP67.6) VH: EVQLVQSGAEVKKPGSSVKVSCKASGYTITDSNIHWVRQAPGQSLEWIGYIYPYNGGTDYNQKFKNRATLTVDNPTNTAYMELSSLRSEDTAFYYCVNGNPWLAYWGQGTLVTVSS VL: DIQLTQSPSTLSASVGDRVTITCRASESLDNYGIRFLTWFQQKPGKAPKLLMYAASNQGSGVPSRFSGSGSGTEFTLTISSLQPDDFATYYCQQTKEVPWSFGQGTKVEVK only.
113 % of WT
